Molecular target: T1, AAV9 (adeno-associated virus 9)
T1 construct: also called adeno-associated virus serotype 9
Test: SPR, AAV amine-coupled to CM5 chip;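 also: nanobodies flowed as analyte at seven concentrations spanning 1–100 nM over immobilized AAV (500–800 RU), kinetic constants derived by fitting the binding curves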
measure: koff (s⁻¹)

1) A4-082 (VHH) VHH: VQLQESGGGLVQPGGSLRLSCAASGSRFSLNTMGWYRQAPGKQRELVATVTRGGSTKYADFVKGRFTISRDNAKNTVYLQMNSLRPEDTAVYYCHVDELRESGWTTSNLWGQGTQVTVSS : 0.0004
2) A4-092 (VHH) VHH: VQLQESGGGLVQTGGSLRLSCLASGSIFSINTMGWYRQRAGKQRELVATVTRAGSTNYADSVKGRFTISRDNAKNTVYLQMNSLRPEDTAVYYCHVDEIRESSWTTSNLWGQGTQVTVSS : 9e-05

// data source = patent US20260193326A1
